Value source: PubChem BioAssay

- System: transactivating tegument protein VP16 (Human herpesvirus 1), Gal4-VP16 luciferase reporter
- method description: VP16 transactivation inhibitors, counter-screen for SRC3 inhibitor project, cell-based, luminescence, high throughput (AID 588794)
- conditions used: mammalian cells, VP16-driven luciferase reporter luminescence; at 3.6 µM
Activity calls are given as the source filed them. No stated cut-off is given here; in the data, active means inhibition above about 30%; inactive means the rest. Square brackets hold non-standard residues; d marks the D form. Peptide text beside a SMILES is read from it. NMeY = CN[C@@H](Cc1ccc(O)cc1)C(=O)O; NMeF = CN[C@@H](Cc1ccccc1)C(=O)O; 2Abz = Nc1ccccc1C(=O)O
Outcomes: label 1 = active, label 0 = inactive

compound: CN1/C(=C\C(=O)C[n+]2cccc(Br)c2)C(C)(C)c2ccccc21
system name: transactivating tegument protein VP16 (Human herpesvirus 1), Gal4-VP16 luciferase reporter
class assignment: label 0
--
compound: c1csc(CNc2ccc3c(c2)OCCO3)c1
system name: transactivating tegument protein VP16 (Human herpesvirus 1), Gal4-VP16 luciferase reporter
class assignment: label 0
--
compound: CCCCCCCNC(=O)C1(CC2CC(c3ccc(Cl)cc3)=NO2)CCN(C(=O)c2cc(OCC)c(OCC)c(OCC)c2)CC1 (stereo not drawn)
system name: transactivating tegument protein VP16 (Human herpesvirus 1), Gal4-VP16 luciferase reporter
class assignment: label 0
--
compound: OCCCNc1nccc(-c2cc(Nc3cccc(Cl)c3)ncn2)n1
system name: transactivating tegument protein VP16 (Human herpesvirus 1), Gal4-VP16 luciferase reporter
class assignment: label 1
--
compound: Cc1csc(SCC(=O)c2cc(C)n(Cc3cccs3)c2C)n1
system name: transactivating tegument protein VP16 (Human herpesvirus 1), Gal4-VP16 luciferase reporter
class assignment: label 0
--
compound: Cc1oc(S(=O)(=O)N(C)C)cc1C(=O)Nc1ccc(Cl)cc1
system name: transactivating tegument protein VP16 (Human herpesvirus 1), Gal4-VP16 luciferase reporter
class assignment: label 0
--
compound: O=[N+]([O-])c1nn(-c2ccc3c(c2)OCCO3)n(O)c1=Nc1ccccc1
system name: transactivating tegument protein VP16 (Human herpesvirus 1), Gal4-VP16 luciferase reporter
class assignment: label 0
--
compound: CC(=NNC(=S)N1CC2CCC(CC2)C1)c1ccccn1
system name: transactivating tegument protein VP16 (Human herpesvirus 1), Gal4-VP16 luciferase reporter
class assignment: label 1
--
compound: c1ccc(Oc2cccc(Oc3ccccc3)n2)cc1
system name: transactivating tegument protein VP16 (Human herpesvirus 1), Gal4-VP16 luciferase reporter
class assignment: label 0
--
compound: Nc1ncccc1C(=O)OCC(=O)N1CCN(S(=O)(=O)c2ccc(Cl)cc2)CC1
system name: transactivating tegument protein VP16 (Human herpesvirus 1), Gal4-VP16 luciferase reporter
class assignment: label 0
--
compound: CCCC(=O)NC(c1ccc(Cl)cc1)c1ccc2cccnc2c1O (stereo not drawn)
system name: transactivating tegument protein VP16 (Human herpesvirus 1), Gal4-VP16 luciferase reporter
class assignment: label 0
--
compound: CCOC(=O)c1c(C)c2c(=O)[nH]cnc2n1-c1ccccc1
system name: transactivating tegument protein VP16 (Human herpesvirus 1), Gal4-VP16 luciferase reporter
class assignment: label 1
--
compound: O=C1C(Nc2ccc(O)cc2)=C/C(=N/S(=O)(=O)c2cccs2)c2ccccc21
system name: transactivating tegument protein VP16 (Human herpesvirus 1), Gal4-VP16 luciferase reporter
class assignment: label 1
--
compound: O=C(CCCOc1ccc(Cl)cc1Cl)N/N=C/c1ccccc1O
system name: transactivating tegument protein VP16 (Human herpesvirus 1), Gal4-VP16 luciferase reporter
class assignment: label 0
--
compound: O=C(NC(CSCc1ccccc1)C(=O)N/N=C/c1ccc(O)cc1O)c1ccc([N+](=O)[O-])cc1 (stereo not drawn)
system name: transactivating tegument protein VP16 (Human herpesvirus 1), Gal4-VP16 luciferase reporter
class assignment: label 1
--
compound: NNC(=O)c1cnn(Cc2ccccc2)c1N
system name: transactivating tegument protein VP16 (Human herpesvirus 1), Gal4-VP16 luciferase reporter
class assignment: label 0
--
compound: CCN(CC)CCCNc1nc2ccccc2c2[nH]c3ccc(OC)cc3c12
system name: transactivating tegument protein VP16 (Human herpesvirus 1), Gal4-VP16 luciferase reporter
class assignment: label 1
--
compound: Cc1ccc(C)c(N2CCN(C(=O)CCS(=O)(=O)c3ccc4c(c3)NC(=O)CO4)CC2)c1
system name: transactivating tegument protein VP16 (Human herpesvirus 1), Gal4-VP16 luciferase reporter
class assignment: label 0
--
compound: O=C(/C=C\Nc1ccc2c(c1)OCO2)c1ccccn1
system name: transactivating tegument protein VP16 (Human herpesvirus 1), Gal4-VP16 luciferase reporter
class assignment: label 0
--
compound: CCC(C)(C)c1ccc(Oc2ccc(N)cc2)cc1
system name: transactivating tegument protein VP16 (Human herpesvirus 1), Gal4-VP16 luciferase reporter
class assignment: label 1
--
compound: Oc1ccc(C=NNc2ccccn2)c(O)c1
system name: transactivating tegument protein VP16 (Human herpesvirus 1), Gal4-VP16 luciferase reporter
class assignment: label 0
--
compound: CC(C)C[C@@H]1NC(=O)[C@H](Cc2ccccc2)N(C)C(=O)[C@H](C)NC(=O)c2ccccc2NC(=O)[C@H](Cc2ccc(O)cc2)N(C)C1=O (cyclo([2Abz]A[NMeF]L[NMeY]))
system name: transactivating tegument protein VP16 (Human herpesvirus 1), Gal4-VP16 luciferase reporter
class assignment: label 0
--
compound: CC1CCN(c2ccc(-c3cccs3)nn2)CC1
system name: transactivating tegument protein VP16 (Human herpesvirus 1), Gal4-VP16 luciferase reporter
class assignment: label 0
--
compound: COc1ccc(-n2cnc3c(sc4nccc(N(C)C)c43)c2=O)cc1
system name: transactivating tegument protein VP16 (Human herpesvirus 1), Gal4-VP16 luciferase reporter
class assignment: label 0
--
compound: CCOC(=O)N1CCC(NC(=O)C2CCCN(Cc3nc(-c4ccc(CC)cc4)oc3C)C2)CC1 (stereo not drawn)
system name: transactivating tegument protein VP16 (Human herpesvirus 1), Gal4-VP16 luciferase reporter
class assignment: label 1
--
compound: CSC1SCC2C(=O)N(C)C(C(C)C)C(=O)OCC(NC(=O)c3cnc4ccccc4n3)C(=O)NC(C)C(=O)N(C)C1C(=O)N(C)C(C(C)C)C(=O)OCC(NC(=O)c1cnc3ccccc3n1)C(=O)NC(C)C(=O)N2C (stereo not drawn)
system name: transactivating tegument protein VP16 (Human herpesvirus 1), Gal4-VP16 luciferase reporter
class assignment: label 1
--
compound: COC1C(OC(=O)/C=C/C=C/C=C/C=C/C(=O)O)CCC2(CO2)C1C1(C)OC1CC=C(C)C (stereo not drawn) (tested in a mixture with another compound)
system name: transactivating tegument protein VP16 (Human herpesvirus 1), Gal4-VP16 luciferase reporter
class assignment: label 0
--
compound: Cc1onc(-c2ccccc2)c1C(=O)NC(=S)NNC(=O)c1ccccc1O
system name: transactivating tegument protein VP16 (Human herpesvirus 1), Gal4-VP16 luciferase reporter
class assignment: label 1
